Test system: Corynebacterium striatum
protocol_notes: Antimicrobial activity against Corynebacterium striatum isolates by CLSI M45-A protocol based microdilution method
Type: functional
The entries below come with measured MIC90 values attached.
Write down the numeric answer in µg/mL and omit the unit.

CO/N=C(\C(=O)N[C@@H]1C(=O)N2C(C(=O)O)=C(COC(N)=O)CS[C@H]12)c1ccco1 :: 2

// query Given CN(C)c1cc(NC(=O)CNC(C)(C)C)c(O)c2c1C[C@H]1C[C@H]3[C@H](N(C)C)C(O)=C(C(N)=O)C(=O)[C@@]3(O)C(O)=C1C2=O , respond with its MIC90.
// result 1

====

Tested on: Arcanobacterium haemolyticum
protocol_notes: Antimicrobial activity against Arcanobacterium haemolyticum isolates by CLSI M45-A protocol based microdilution method
Type: functional
endpoint: log10(MIC90) (log10 of the value in mg/L)
Record value = log10 of MIC90 given in mg/L.

The cases that follow already have their log10(MIC90) on record.
CO/N=C(\C(=O)N[C@@H]1C(=O)N2C(C(=O)O)=C(COC(N)=O)CS[C@H]12)c1ccco1 :: -0.60
CN(C)c1ccc(O)c2c1C[C@H]1C[C@H]3[C@H](N(C)C)C(O)=C(C(N)=O)C(=O)[C@@]3(O)C(O)=C1C2=O :: 0.60
CN[C@H](CC(C)C)C(=O)N[C@H]1C(=O)N[C@@H](CC(N)=O)C(=O)N[C@H]2C(=O)N[C@H]3C(=O)N[C@H](C(=O)N[C@H](C(=O)O)c4cc(O)cc(O)c4-c4cc3ccc4O)[C@H](O)c3ccc(c(Cl)c3)Oc3cc2cc(c3O[C@@H]2O[C@H](CO)[C@@H](O)[C@H](O)[C@H]2O[C@H]2C[C@](C)(N)[C@H](O)[C@H](C)O2)Oc2ccc(cc2Cl)[C@H]1O :: -0.30
C[C@H]1COc2c(N3CCN(C)CC3)c(F)cc3c(=O)c(C(=O)O)cn1c23.C[C@H]1COc2c(N3CCN(C)CC3)c(F)cc3c(=O)c(C(=O)O)cn1c23.O :: -0.30
CN(C)[C@@H]1C(O)=C(C(N)=O)C(=O)[C@@]2(O)C(O)=C3C(=O)c4c(O)cccc4[C@@](C)(O)[C@H]3C[C@@H]12 :: 1.20

The record that follows has no log10(MIC90) shown yet.
// query Look up and report measured log10(MIC90) for this entry: C[C@H]1c2cccc(O)c2C(=O)C2=C(O)[C@]3(O)C(=O)C(C(N)=O)=C(O)[C@@H](N(C)C)[C@@H]3[C@@H](O)[C@@H]21.O
// result 0.90

====

System: Corynebacterium minutissimum
protocol_notes: Antimicrobial activity against Corynebacterium minutissimum isolates by CLSI M45-A protocol based microdilution method
Assay type: functional
endpoint: MIC50

CN(C)c1ccc(O)c2c1C[C@H]1C[C@H]3[C@H](N(C)C)C(O)=C(C(N)=O)C(=O)[C@@]3(O)C(O)=C1C2=O [MINOCYCLINE] :: ≤ 0.03 µg/mL
CN(C)[C@@H]1C(O)=C(C(N)=O)C(=O)[C@@]2(O)C(O)=C3C(=O)c4c(O)cccc4[C@@](C)(O)[C@H]3C[C@@H]12 [TETRACYCLINE] :: 0.25 µg/mL
C[C@H]1c2cccc(O)c2C(=O)C2=C(O)[C@]3(O)C(=O)C(C(N)=O)=C(O)[C@@H](N(C)C)[C@@H]3[C@@H](O)[C@@H]21.O [DOXYCYCLINE] :: 0.25 µg/mL

// query Name the recorded MIC50 of the item CO/N=C(\C(=O)N[C@@H]1C(=O)N2C(C(=O)O)=C(COC(N)=O)CS[C@H]12)c1ccco1 [CEFUROXIME] in your answer.
// result 0.5 µg/mL

====

System: Corynebacterium striatum
protocol_notes: Antimicrobial activity against Corynebacterium striatum isolates by CLSI M45-A protocol based microdilution method
Assay type: functional
endpoint: MIC90

CCC[C@@H]1C[C@@H](C(=O)N[C@@H]([C@H]2O[C@H](SC)[C@H](O)[C@@H](O)[C@H]2O)[C@H](C)Cl)N(C)C1 :: > 16 µg/mL

// query Provide one value: measured MIC90 of C[C@H]1COc2c(N3CCN(C)CC3)c(F)cc3c(=O)c(C(=O)O)cn1c23.C[C@H]1COc2c(N3CCN(C)CC3)c(F)cc3c(=O)c(C(=O)O)cn1c23.O
// result > 32 µg/mL

// query Specify measured MIC90 for CN(C)[C@@H]1C(O)=C(C(N)=O)C(=O)[C@@]2(O)C(O)=C3C(=O)c4c(O)cccc4[C@@](C)(O)[C@H]3C[C@@H]12 .
// result > 32 µg/mL

====

System: Corynebacterium urealyticum
protocol_notes: Antimicrobial activity against Corynebacterium urealyticum isolates by CLSI M45-A protocol based microdilution method
Assay type: functional
The reader will find reported MIC50 values listed item by item below.

CCC[C@@H]1C[C@@H](C(=O)N[C@@H]([C@H]2O[C@H](SC)[C@H](O)[C@@H](O)[C@H]2O)[C@H](C)Cl)N(C)C1 :: > 16 µg/mL
CO/N=C(\C(=O)N[C@@H]1C(=O)N2C(C(=O)O)=C(COC(N)=O)CS[C@H]12)c1ccco1 :: > 32 µg/mL

Let us examine a further case.
// query Tell me its MIC50 given C[C@H]1COc2c(N3CCN(C)CC3)c(F)cc3c(=O)c(C(=O)O)cn1c23.C[C@H]1COc2c(N3CCN(C)CC3)c(F)cc3c(=O)c(C(=O)O)cn1c23.O as the entry.
// result > 32 µg/mL

These entries and their values trace back to ChEMBL document CHEMBL1255301.
